Where do these numbers come from? They come from ChEMBL document CHEMBL4513216.

tested on: Plasmodium falciparum; assay: Screen against P. falciparum Asexual Blood Stage (ABS), at 5uM; type: functional, Dd2; conditions: tested at 5 uM
About 2,100 (3.2%) of roughly 65,000 compounds showed an effect of 50% or more. The median lay at about -52%. Shown is part of a subset that was picked to be rich in strong results.
Quick rule for you: INHIBITION under 40% gets met, anything else gets not met.

Please check: INHIBITION for c1csc(CN2CCOCC3(CCN(C4CCOCC4)C3)C2)c1 (configuration not stated) , strictly under 40% or not?
not met

Please check: INHIBITION for `Cc1ccc(C(=O)NCCCNc2ccc(C(F)(F)F)cn2)cc1` , strictly under 40% or not?
met

Please check: INHIBITION for `O=C(C1CC1)N1CC[C@H](c2nc3ccccc3o2)C1` , strictly under 40% or not?
not met

Please check: INHIBITION for COc1ccc(C2CCCN2C(=O)NCCn2ccnc2)cc1 (configuration not stated) , strictly under 40% or not?
not met

Please check: INHIBITION for Cc1ccc(CN2CCOCC3(CCN(Cc4cccs4)C3)C2)o1 (configuration not stated) , strictly under 40% or not?
not met

Please check: INHIBITION for O=C(NCCn1ccnc1)N1CCCC1c1ccncc1 (configuration not stated) , strictly under 40% or not?
met

Please check: INHIBITION for c1ccc(C2Cn3ccnc3CN2Cc2ncc[nH]2)cc1 (configuration not stated) , strictly under 40% or not?
met

Please check: INHIBITION for `Cc1cc(=O)[nH]c(=O)n1Cc1ncc(-c2ccccc2C(=O)O)s1` , strictly under 40% or not?
met

Please check: INHIBITION for COc1ccc(CN2CCOCC3(CCN(C4CCOCC4)C3)C2)cc1 (configuration not stated) , strictly under 40% or not?
not met

Please check: INHIBITION for `CC(=O)N1CC[C@H](c2nc3cc(C)ccc3o2)C1` , strictly under 40% or not?
met

Please check: INHIBITION for COc1ccc(C2CCCN2C(=O)NCCCn2ccnc2)cc1 (configuration not stated) , strictly under 40% or not?
not met

Please check: INHIBITION for CCN(C(=O)CCOC)C(c1ccc(Cl)cc1)c1ccccn1 (configuration not stated) , strictly under 40% or not?
met

====

So I've got a bunch of compounds here, and I need their INHIBITION values.
tested on: Plasmodium falciparum; test: Screen against P. falciparum Asexual Blood Stage (ABS), at 5uM; type: functional, Dd2; conditions: tested at 5 uM
Among all 65,000 compounds or so, about 2,100 (3.2%) showed an effect of 50% or more. The median lay at about -52%. The entries come from a sample that favours strong results as a whole.
Write the number in % without appending the unit.

Looking up `Cn1nccc1C(=O)Nc1cc(C(F)(F)F)c[nH]c1=O` , I found its INHIBITION recorded as 56.5

Looking up `COc1ccc(C[C@H]2CN(c3nnc(C)s3)CC[C@H]2OC)cc1` , I found its INHIBITION recorded as -2.98

Looking up `Cn1nccc1CNC(=O)Nc1cc(C(F)(F)F)c[nH]c1=O` , I found its INHIBITION recorded as -32.9

Looking up `c1csc(CN2CC3(CCN(Cc4ccsc4)C3)C2)n1` , I found its INHIBITION recorded as -42.4

Looking up `c1cnc(N2CCC3(CCN(Cc4cccnc4)CC3)CC2)nc1` , I found its INHIBITION recorded as -71.4

Looking up `Fc1ccc(CN2CCC3(CCN(Cc4nccs4)CC3)C2)cc1` , I found its INHIBITION recorded as 57.9

Looking up `Cc1ccc(-c2noc(CN3CCC(N4CCNC4=O)CC3)n2)cc1` , I found its INHIBITION recorded as -63.1

Looking up Fc1ccc(CN2CCOCC3(CCN(Cc4nccs4)C3)C2)cc1 (stereo unspecified) , I found its INHIBITION recorded as 0.38

Looking up `Fc1ccc(CN2CCC3(CC2)CCN(c2ncccn2)CC3)cc1` , I found its INHIBITION recorded as 55

Looking up CNC(=O)C1Cn2ccnc2C2(CCN(Cc3nccs3)CC2)O1 (stereo unspecified) , I found its INHIBITION recorded as -118

Looking up `COCCO[C@H]1CCN(Cc2ccoc2)[C@H]1Cc1cccnc1` , I found its INHIBITION recorded as -10.4

====

test system: Plasmodium falciparum; assay: Screen against P. falciparum Asexual Blood Stage (ABS), at 5uM; format: functional, Dd2; details: tested at 5 uM
The campaign covered roughly 65,000 compounds. About 2,100 (3.2%) showed an effect of 50% or more. The median lay at about -52%. The list comes from a sample in which strong results are over-represented; it also holds close analogues and randomly drawn compounds.
propertyName: INHIBITION (%)
Write the number in % without appending the unit.

Looking up CC(C)CC(NCc1cscn1)c1ccccn1 (stereo unspecified) , I found its INHIBITION recorded as 32.3

Looking up `N#CC1(NC(=O)Cc2cc(Cl)c3c(c2)OCCO3)CCC1` , I found its INHIBITION recorded as -75

Looking up Cc1ccc(Nc2nccc(C3CCN(C(=O)CN)C3)n2)nc1 (stereo unspecified) , I found its INHIBITION recorded as -205

Looking up CC(C)CC(NCc1ccsc1)c1ccccn1 (stereo unspecified) , I found its INHIBITION recorded as 60

Looking up `CN1CCN(C2CCN(CCOc3cccc(Cl)c3)CC2)C1=O` , I found its INHIBITION recorded as -9.24

Looking up `COc1cccc(N2CCN(CCC(=O)NC3CCCCC3)CC2)c1` , I found its INHIBITION recorded as -28.7

====

So I've got a bunch of compounds here, and I need their INHIBITION values.
test system: Plasmodium falciparum; assay: Screen against P. falciparum Asexual Blood Stage (ABS), at 5uM; format: functional, Dd2; conditions: tested at 5 uM
The whole screen tested about 65,000 compounds, of which about 2,100 (3.2%) showed an effect of 50% or more. The median lay at about -52%. The full list was thinned out, with strong results kept by preference.
Write the number in % without appending the unit.

Looking up `Cc1ccc(CN(CCCN(C)C)Cc2cnc(C)n2C)o1` , I found its INHIBITION recorded as -17.8

Looking up `O=C(NC1CC1)[C@H]1C[C@H]2OCC[C@H]2N(CC2CC2)C1` , I found its INHIBITION recorded as -28.3

Looking up `COc1cccc(Cn2cc(N3C(=O)CCC3=O)cn2)c1` , I found its INHIBITION recorded as -83.8

Looking up `CC(C)c1noc(CCCC(=O)N2CCN(S(C)(=O)=O)CC2)n1` , I found its INHIBITION recorded as -41.7

Looking up O=C(c1ccncc1)N1CCOC2(CCCN(c3nncs3)C2)C1 (configuration not stated) , I found its INHIBITION recorded as -74.2

Looking up `CC(C)c1cc(NC(=O)c2ccncc2)[nH]n1` , I found its INHIBITION recorded as -134

Looking up `CCN1CCn2c(C)cnc2C12CCN(C(=O)N(C)C)CC2` , I found its INHIBITION recorded as 53

Looking up `CCN1CCn2c(C)cnc2C12CCN(C(=O)CC(C)C)CC2` , I found its INHIBITION recorded as -55.6

Looking up `Cc1csc(N2CCCN(C3Cc4ccccc4C3)CC2)n1` , I found its INHIBITION recorded as -1.32

Looking up `Cc1ccc(CN(CCCN2CCOCC2)Cc2cnc(C)n2C)o1` , I found its INHIBITION recorded as 55.1

Looking up CCN1CCN(c2ccccc2NC(=O)N(C)C2CCSC2)CC1 (configuration not stated) , I found its INHIBITION recorded as 37.6

Looking up `CC(C)(C)c1ncc(C(=O)NCc2ccccc2CN2CCCC2)s1` , I found its INHIBITION recorded as -23.4

====

system: Plasmodium falciparum; assay: Screen against P. falciparum Asexual Blood Stage (ABS), at 5uM; assay type: functional, Dd2; conditions: tested at 5 uM
In all, about 65,000 compounds went through this assay and about 2,100 (3.2%) showed an effect of 50% or more. The median lay at about -52%. Many of the other results were omitted from the sample, so strong results are more common in it than they were.
So I've got a bunch of compounds here, and I need their INHIBITION values.
Write the number in % without appending the unit.

Entry c1cncc(-c2noc(CNCC3CCCN3c3cccnn3)n2)c1 (configuration not stated) ; assay system Plasmodium falciparum; INHIBITION recorded at -92.3

Entry CC(C)(C)C(=O)N1CCC2(CNS(=O)(=O)c3cnccc3O2)C1 (configuration not stated) ; assay system Plasmodium falciparum; INHIBITION recorded at -18.2

Entry `O=C(CCc1ccsc1)NC1CCN(c2cccc(F)c2)CC1` ; assay system Plasmodium falciparum; INHIBITION recorded at -55.7

Entry CC(C)(C)c1ccc(-n2ncc3c2CCCC3N)cc1 (configuration not stated) ; assay system Plasmodium falciparum; INHIBITION recorded at 31.8

Entry `CNC(=O)CN1CCCC12CCN(C(=O)c1ccc(F)cc1)CC2` ; assay system Plasmodium falciparum; INHIBITION recorded at -39

Entry CC(C)CCc1nc(CNCC2CCCN2c2cccnn2)cs1 (configuration not stated) ; assay system Plasmodium falciparum; INHIBITION recorded at 67.4

Entry NC1CCCc2c1cnn2-c1cc(F)cc(F)c1 (configuration not stated) ; assay system Plasmodium falciparum; INHIBITION recorded at 53.6

Entry Cc1ccc(CNCC2CCCN2c2cccnn2)s1 (configuration not stated) ; assay system Plasmodium falciparum; INHIBITION recorded at 46.6

Entry Cc1ccc(-n2ncc3c2CCCC3N)cc1C (configuration not stated) ; assay system Plasmodium falciparum; INHIBITION recorded at 7.06

Entry `O=C(CC1CC1)N1CC[C@H]2[C@@H]1CCC(=O)N2c1cccnc1` ; assay system Plasmodium falciparum; INHIBITION recorded at -27.5

Entry CCCc1nc(CNCC2CCCN2c2cccnn2)cs1 (configuration not stated) ; assay system Plasmodium falciparum; INHIBITION recorded at 37.5

Entry `CC(C)COCCC(=O)NCc1cn2cc(Br)ccc2n1` ; assay system Plasmodium falciparum; INHIBITION recorded at -27.3
